FYI, the data here is from ChEMBL document CHEMBL3507680.

# test-name: Human HepG2 cell viability assay in 384 well format
# Format: toxicity, cell-based
# Parameters: dose 125 nL, time 70.5 hour; concentration not given beside the values
# measurement-context: HepG2 cells, read-out: Inhibition
measurement-name: cytotoxicity at 70.5 h (%)
Give a bare numeral; the unit % is implied.

Q: Look up cytotoxicity at 70.5 h for this molecule: O=C(c1ccccn1)N1CCCC(c2cc(C(F)F)n3ncnc3n2)C1 (stereo unspecified)
Result: -4.56

Q: Look up cytotoxicity at 70.5 h for this molecule: Cc1nc(COC[C@@H]2CC[C@H]3[C@H](CCN3C(=O)C3CC3)O2)cs1
Result: -7.97

Q: Look up cytotoxicity at 70.5 h for this molecule: Nc1nc2nc(C3CCCN(C(=O)c4cnccn4)C3)ccc2s1 (stereo unspecified)
Result: -3.81

Q: Look up cytotoxicity at 70.5 h for this molecule: Cc1ccc(C(=O)N2CCC(Oc3ccc(F)cc3F)CC2)c(=O)[nH]1
Result: 31.6

Q: Look up cytotoxicity at 70.5 h for this molecule: CCCc1noc(CN2CCCC2c2ccsc2)n1 (stereo unspecified)
Result: -17.8

Q: Look up cytotoxicity at 70.5 h for this molecule: Cc1cnc(CNC(=O)C2CCOc3ccccc3C2)cn1 (stereo unspecified)
Result: -19.3

Q: Look up cytotoxicity at 70.5 h for this molecule: COc1cc(N2C[C@H]3CCC[C@@H](CN(C)C)[C@H]3C2)ncn1
Result: -10.1

Q: Look up cytotoxicity at 70.5 h for this molecule: Cc1cnn(CC(C)NCc2csc(-c3cnn(C)c3)n2)c1 (stereo unspecified)
Result: 51.9

Q: Look up cytotoxicity at 70.5 h for this molecule: O=C(NC1CC1)c1cc2c(s1)CCN2C(=O)C1CC1
Result: -7.29

Q: Look up cytotoxicity at 70.5 h for this molecule: Cc1ncsc1C(=O)NCCSCc1cccs1
Result: -1.32

Q: Look up cytotoxicity at 70.5 h for this molecule: CCNc1nc(-c2cccnc2)c(-c2ccnc(NCCO)n2)s1
Result: -13.3

Q: Look up cytotoxicity at 70.5 h for this molecule: CNc1nc(CNC(=O)Nc2ccc(OC(C)C)cc2F)cs1
Result: -5.89

Q: Look up cytotoxicity at 70.5 h for this molecule: Cn1cc(CN2CCC3(CC2)CCN(C(=O)c2cscn2)CC3)cn1
Result: -1.71

Q: Look up cytotoxicity at 70.5 h for this molecule: O=C(c1cnccn1)N1CCN(Cc2cccnc2)c2ncccc2C1
Result: -8.24

Q: Look up cytotoxicity at 70.5 h for this molecule: Cc1nc(O)cc(CN2CCC=C(CN(C)C(=O)c3ccco3)C2)n1
Result: -14.2

Q: Look up cytotoxicity at 70.5 h for this molecule: Clc1ccc(OCCN2CCN(CCn3cncn3)CC2)cc1
Result: 13.2

Q: Look up cytotoxicity at 70.5 h for this molecule: CC(C)N(C)C(=O)C1CSCN1S(=O)(=O)c1ccccc1F (stereo unspecified)
Result: -9.21

Q: Look up cytotoxicity at 70.5 h for this molecule: CC(C)C1CN(c2cccc(C#N)n2)CCCN1CC1CC1 (stereo unspecified)
Result: -11.5

Q: Look up cytotoxicity at 70.5 h for this molecule: CC(C)c1nc(C2CCCN2C(=O)c2ccc(C#N)cn2)no1 (stereo unspecified)
Result: 1.98

Q: Look up cytotoxicity at 70.5 h for this molecule: CNc1cc(C(=O)N2CCC3(CC2)Nc2ccccc2NC3=O)ccn1
Result: -4.39

Q: Look up cytotoxicity at 70.5 h for this molecule: O=C(NS(=O)(=O)c1ccccc1C(F)(F)F)c1cccc2c1OCCO2
Result: -75.1

Q: Look up cytotoxicity at 70.5 h for this molecule: COc1cc(CN(C)C(=O)NCCC2CCCO2)ccc1SC (stereo unspecified)
Result: -3.73

Q: Look up cytotoxicity at 70.5 h for this molecule: COCC(=O)N1CC[C@@H]2CN(Cc3ccccc3)S(=O)(=O)[C@@H]2CC1
Result: -5.37

Q: Look up cytotoxicity at 70.5 h for this molecule: CCN(CC)C(=O)c1nnn(Cc2ccccc2)c1OC
Result: 0.599

Q: Look up cytotoxicity at 70.5 h for this molecule: Cc1cc(CN2CCC(N(C)Cc3noc(C4CC4)n3)C2)on1 (stereo unspecified)
Result: 19.5

Q: Look up cytotoxicity at 70.5 h for this molecule: CN1CCCC(CCC(=O)N2CCc3[nH]c(-c4ccccc4)nc3C2)C1 (stereo unspecified)
Result: 20.8

Q: Look up cytotoxicity at 70.5 h for this molecule: COCc1nc(C(=O)N2CCCC2c2ccccc2C)cs1 (stereo unspecified)
Result: -1.48

Q: Look up cytotoxicity at 70.5 h for this molecule: Cc1cc(C)c(CNC(=O)N(C)Cc2cccc(F)c2)c(=O)[nH]1
Result: 0.933

Q: Look up cytotoxicity at 70.5 h for this molecule: CCCC(=O)NC(Cc1ccc(C)cc1)c1ccccn1 (stereo unspecified)
Result: 2.81

Q: Look up cytotoxicity at 70.5 h for this molecule: Cc1occc1C(=O)N1C[C@@H](C(=O)N2CCCCO2)C[C@H]2OCC[C@H]21
Result: -7.27

Q: Look up cytotoxicity at 70.5 h for this molecule: CN(C)CC(C)(C)Cn1cnc(-c2ccccc2)c1-c1ccncc1
Result: -9.09

Q: Look up cytotoxicity at 70.5 h for this molecule: Cc1csc(CNc2cnn(CC(F)(F)F)c2)n1
Result: -2.55

Q: Look up cytotoxicity at 70.5 h for this molecule: CN(C)CCCn1cnc2cc(NC(=O)c3n[nH]c4c3CCC4)ccc21
Result: -4.15

Q: Look up cytotoxicity at 70.5 h for this molecule: COCc1nn(C)c2c1CCN(Cc1cnn(C)c1)C2
Result: -5.93

Q: Look up cytotoxicity at 70.5 h for this molecule: CCCNC(=O)Nc1ccc2c(c1)N(S(=O)(=O)CC)CC2
Result: -6.9

Q: Look up cytotoxicity at 70.5 h for this molecule: O=C(CN1CCCNC1=O)N(Cc1ccccc1)CC(F)F
Result: 1.59

Q: Look up cytotoxicity at 70.5 h for this molecule: Cc1cc(NC(=O)CN2CCC(N(C)Cc3ncc(C)o3)C2)n(C)n1 (stereo unspecified)
Result: 16.2

Q: Look up cytotoxicity at 70.5 h for this molecule: CC(C)Oc1ncc(C(=O)N2CCCC(C(=O)O)C2)cc1Cl (stereo unspecified)
Result: -7.98

Q: Look up cytotoxicity at 70.5 h for this molecule: c1cncc(-c2noc(CN3CCCC(Cn4cncn4)C3)n2)c1 (stereo unspecified)
Result: 9.23

Q: Look up cytotoxicity at 70.5 h for this molecule: CN(C)C(=O)CN1CCC2(COCc3cnc(-c4ccccc4)nc32)C1 (stereo unspecified)
Result: -6.03

Q: Look up cytotoxicity at 70.5 h for this molecule: O=C(c1ccccc1-c1nc[nH]n1)N1CCOC(C(F)(F)F)C1 (stereo unspecified)
Result: -2.49

Q: Look up cytotoxicity at 70.5 h for this molecule: CCCn1cc(C(=O)NCCc2ccc3c(c2)OCO3)c(C)n1
Result: -4.51

Q: Look up cytotoxicity at 70.5 h for this molecule: CCCn1cc(NC(=O)c2ccc(S(C)(=O)=O)cc2)ccc1=O
Result: -1.34

Q: Look up cytotoxicity at 70.5 h for this molecule: Cc1ccc(N2CCO[C@H]3CN(Cc4cc(C)on4)CC[C@H]3C2=O)cn1
Result: -9.06

Q: Look up cytotoxicity at 70.5 h for this molecule: c1cc(N2CCC(CN3CCOCC3)CC2)c2sccc2n1
Result: 0.228

Q: Look up cytotoxicity at 70.5 h for this molecule: COCCCNC(=O)CN(C)C(=O)c1cc(C)ccc1N(C)C(C)C
Result: -3.7
